Measured Metric: melting point

INSERT INTO assay_data (item_smiles, measured_metric, result) VALUES
  ('O=C1Nc2ccc(F)cc2/C1=N/NC(=O)c1ccco1', 'melting point', '310 to 312 °C'),
  ('O=C(N/N=C1\C(=O)N(Cc2ccccc2)c2ccc(Cl)cc21)c1ccncc1', 'melting point', '167 to 171 °C'),
  ('O=C1/C(=N\NC(=O)C23CC4CC(CC(C4)C2)C3)c2ccccc2N1c1ccccc1', 'melting point', '201 to 203 °C'),
  ('O=C1Nc2ccc(OC(F)(F)F)cc2/C1=N/NC(=O)c1ccccc1Nc1cccc(C(F)(F)F)c1', 'melting point', '226 °C'),
  ('Cc1ccc2c(c1)/C(=N/NC(=O)c1cc3ccccc3o1)C(=O)N2', 'melting point', '331 to 336 °C'),
  ('Cc1ccc2c(c1)/C(=N/NC(=O)c1ccccc1Nc1c(Cl)ccc(C)c1Cl)C(=O)N2', 'melting point', '283 to 287 °C'),
  ('O=C1Nc2ccccc2/C1=N/NC(=O)c1cccnc1', 'melting point', '254 to 256 °C'),
  ('O=C1Nc2ccc(F)cc2/C1=N/NC(=O)c1cc2cc([N+](=O)[O-])ccc2o1', 'melting point', '357 to 359 °C'),
  ('O=C1Nc2ccc(Cl)cc2/C1=N/NC(=O)c1cc2ccccc2o1', 'melting point', '335 to 338 °C'),
  ('O=C(N/N=C1\C(=O)N(c2ccccc2)c2ccccc21)c1ccncc1', 'melting point', '201 to 205 °C'),
  ('Cc1cccc(Nc2ccccc2C(=O)N/N=C2\C(=O)N(Cc3ccccc3)c3ccccc32)c1C', 'melting point', '286 to 288 °C'),
  ('O=C1Nc2ccccc2/C1=N/NC(=O)c1ccc([N+](=O)[O-])o1', 'melting point', '309 to 311 °C'),
  ('O=C1Nc2ccc(OC(F)(F)F)cc2/C1=N/NC(=O)c1ccncc1', 'melting point', '262 to 265 °C');
